MEASURED_ON: BmorOR1 (Bombyx mori, UniProt Q5WA61)
Construct: gene BmOR-1; full-length; with BmorOrco
Sequence (Q5WA61 1-430): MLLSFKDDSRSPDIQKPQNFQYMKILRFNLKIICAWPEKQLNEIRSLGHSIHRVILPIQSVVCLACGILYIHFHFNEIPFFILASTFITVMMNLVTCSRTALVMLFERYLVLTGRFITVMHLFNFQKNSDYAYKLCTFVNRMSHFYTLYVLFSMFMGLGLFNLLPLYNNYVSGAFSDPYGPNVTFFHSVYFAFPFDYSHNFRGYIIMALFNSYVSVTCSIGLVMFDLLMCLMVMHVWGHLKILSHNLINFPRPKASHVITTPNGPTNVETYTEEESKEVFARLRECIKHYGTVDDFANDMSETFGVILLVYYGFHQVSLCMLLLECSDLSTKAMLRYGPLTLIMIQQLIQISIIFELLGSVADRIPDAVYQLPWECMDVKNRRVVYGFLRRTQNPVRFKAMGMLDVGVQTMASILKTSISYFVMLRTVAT
Sequence (Q7YT34 1-472 partner): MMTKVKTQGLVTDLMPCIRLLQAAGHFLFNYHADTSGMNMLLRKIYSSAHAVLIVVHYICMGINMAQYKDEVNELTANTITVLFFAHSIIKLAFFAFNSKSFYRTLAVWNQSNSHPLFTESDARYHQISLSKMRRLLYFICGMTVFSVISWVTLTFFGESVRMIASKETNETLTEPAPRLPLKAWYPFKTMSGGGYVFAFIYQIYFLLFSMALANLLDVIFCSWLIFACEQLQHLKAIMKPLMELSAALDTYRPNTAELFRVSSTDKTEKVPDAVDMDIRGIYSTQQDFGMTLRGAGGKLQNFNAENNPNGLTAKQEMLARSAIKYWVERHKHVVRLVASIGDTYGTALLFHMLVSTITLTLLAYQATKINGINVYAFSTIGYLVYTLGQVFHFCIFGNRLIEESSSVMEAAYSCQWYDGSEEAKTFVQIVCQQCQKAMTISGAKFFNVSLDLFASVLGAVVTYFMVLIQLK
ASSAY_NOTES: two-electrode voltage clamp in Xenopus oocytes expressing BmorOR1 and BmorOrco (injection, source dose)
Assay type: cell-based

- SMILES_NOTATION: "CCC/C=C\\C=C\\CCCCCCCCC=O"
  ENDPOINT_UNIT: "µM"
  EC50: 9.6

---

MEASURED_ON: BmorOR1 (Bombyx mori)
Construct: gene BmOR-1; full-length; with BmorOrco
ASSAY_NOTES: two-electrode voltage clamp in Xenopus oocytes expressing BmorOR1 and BmorOrco, dose-response
Type: cell-based
# EC50 per record follows
QUANTITY_KIND: EC50 (µM)

- MOLECULE: "CCC/C=C\\C=C\\CCCCC#CCCCO"
  QUANTITY_KIND: "EC50"
  ENDPOINT_UNIT: "µM"
  MEASURED_NUMBER: 17
- MOLECULE: "CCC/C=C\\C=C\\CCCC/C=C\\CCCO [compound 11, (4Z,10E,12Z)-hexadecatrien-1-ol]"
  QUANTITY_KIND: "EC50"
  ENDPOINT_UNIT: "µM"
  MEASURED_NUMBER: 13
